# assay procedure: intrinsic fluorescence of library compounds, ex339/em460 – biochemical, MLSMR library, data from DPM-DC assay, artefact control, profiling panel (AID 709);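 also: signal is the first read of a kinetic run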
# condition: compound autofluorescence, ex339/em460 nm, NADH buffer; at 10 µM; 1 = no-compound wells, NADH background
In all, about 65,000 compounds went through this assay and about 3,600 (5.5%) were called active.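 The calls were made as follows: active = at 10 µM, mean starting fluorescence two-fold or more over control wells; inactive = the rest.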 The sample holds actives, similar compounds and a random draw of the others, so the mix is not that of the screen.
Use one of these outcomes when replying: 1 (yes) (active), 0 (no) (inactive)

Use the examples below as a reference point.
INSERT INTO results (compound, class) VALUES
  ('c1ccc(-n2ncc(-c3nn[nH]n3)n2)cc1', '0 (no)'),
  ('CCOC(=O)c1c(C)oc2ccc(OCC(=O)N(CC)CC)cc12', '0 (no)'),
  ('Cc1ccc2c(CSc3nncs3)cc(=O)oc2c1', '0 (no)'),
  ('CCCCN(CCCC)C(=O)CCS(=O)(=O)c1ccc2c(c1)n(C)c(=O)c(=O)n2C', '0 (no)'),
  ('Cc1ccc(C(=O)N2CCCCCC2)cc1Br', '0 (no)');

Problem: What did the test return for `COc1ccc(CCNC(=O)c2cc(-c3ccc4c(c3)OCO4)on2)cc1OC` ?
Result: 0 (no)

Problem: Outcome? `Cc1ccc2cc3cc(C(=O)N4CCCCCC4)oc3nc2c1`
Result: 1 (yes)

Problem: Which outcome was entered for the compound `CC(C)(O)C#Cc1ccc(C(=O)N2CCC(C(N)=O)(N3CCCCC3)CC2)cc1` in this test?
Result: 0 (no)

Problem: Please state the recorded outcome for this compound: O=C1c2ccccc2C(O)N1Cc1ccccc1Cl (configuration not stated)
Result: 0 (no)

Problem: Tell me the recorded outcome of this test for `Cc1ccc(N2CCN(S(=O)(=O)N(C)C)CC2)cc1Cl` .
Result: 0 (no)

Problem: So what was the verdict on `Cc1ccc2oc(=O)c3cnn(CC(=O)N4CCCCCC4)c3c2c1` in this test?
Result: 0 (no)

Problem: Assay outcome for `COc1cccc(-c2cc3nc4c(c(N5CCC6(CC5)OCCO6)n3n2)CCCC4)c1` : what was it?
Result: 0 (no)

----------
# assay procedure: intrinsic fluorescence of library compounds, ex339/em460 – biochemical, MLSMR library, data from DPM-DC assay, artefact control, profiling panel (AID 709);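 also: signal is the first read of a kinetic run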
# condition: compound autofluorescence, ex339/em460 nm, NADH buffer; at 10 µM; hits give high values; 1 = no-compound wells, NADH background
The campaign covered roughly 65,000 compounds. About 3,600 (5.5%) were called active. For the sample, actives were picked, then their nearest neighbours and some compounds at random.
attribute measured: fluorescence fold increase
Could you keep your reply to the number by itself?

Problem: What value of measured fluorescence fold increase is listed for `O=C(NCc1ccco1)c1cnn2c(C(F)(F)F)cc(-c3ccco3)nc12` ?
Result: 1.6

Problem: Field request: fluorescence fold increase | item: `COc1cccc(-c2nc3cc(C)ccc3o2)c1`
Result: 1.2

Problem: # fluorescence fold increase lookup, item `Clc1ccc(Cc2nn3c(-c4ccncc4)nnc3s2)cc1`
Result: 1

Problem: I would be grateful if you could share the reported fluorescence fold increase for `CCOC(=O)CSc1nc2c(c(=O)n(Cc3ccccc3Cl)c(=O)n2C)n1C` .
Result: 1.06

----------
# assay procedure: intrinsic fluorescence of library compounds, ex339/em460 – biochemical, MLSMR library, data from DPM-DC assay, artefact control, profiling panel (AID 709);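 also: signal is the first read of a kinetic run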
# condition: compound autofluorescence, ex339/em460 nm, NADH buffer; at 10 µM; hits give high values; 1 = no-compound wells, NADH background
The whole screen tested about 65,000 compounds, of which about 3,600 (5.5%) were called active. The sample holds actives, similar compounds and a random draw of the others, so the mix is not that of the screen.
As shown below, each of these compounds has a reported fluorescence fold increase value.
Give the figure by itself; no unit, no explanation.

INSERT INTO assay_data (compound, measured_value) VALUES
  ('COc1ccc(OC)c(C(=O)CSc2nnc(-c3cccs3)o2)c1', 3.64),
  ('Cn1c(=NC(=O)c2ccco2)sc2cccc(F)c21', 1.85),
  ('Cc1c(C(=O)N2CCOCC2)[nH]c2ccc(OCc3ccccc3)cc12', 1.13),
  ('CCOC(=O)c1[nH]c2ccc(OC)cc2c1NC(=O)N1CCOCC1', 3.83),
  ('O=C(Cn1nnc(-c2ccc3c(c2)OCO3)n1)NCc1ccco1', 1.15);

Problem: Looking for the measured fluorescence fold increase of `CCOc1ccccc1NC(=O)CCN1CCN(S(=O)(=O)c2ccc(OC)cc2)CC1` , can you help?
Result: 1

Problem: Quick check: fluorescence fold increase of `COC(=O)c1[nH]c2ccccc2c1NC(=O)CN1CCCc2ccccc21` ?
Result: 1.14

----------
# assay procedure: intrinsic fluorescence of library compounds, ex339/em460 – biochemical, MLSMR library, data from DPM-DC assay, artefact control, profiling panel (AID 709);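 also: signal is the first read of a kinetic run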
# condition: compound autofluorescence, ex339/em460 nm, NADH buffer; at 10 µM; hits give high values; 1 = no-compound wells, NADH background
About 3,600 (5.5%) of roughly 65,000 compounds were called active. Many of the other results were omitted from the sample, so actives are more common in it than they were.
Collected fluorescence fold increase values appear next to each entry.
I'd appreciate a reply containing only the number, no unit.

INSERT INTO assay_data (compound, attribute_measured, measured_value) VALUES
  ('O=C(C1CCC(C(=O)N2CCCC2)CC1)N1CCCC1 (configuration not stated)', 'fluorescence fold increase', 1.02);

Problem: Query: fluorescence fold increase; subject: COc1ccc(C2CC(c3ccc(C)cc3)Nc3nc(N)nn32)cc1 (configuration not stated)
Result: 1.09

Problem: # fluorescence fold increase lookup, item `COc1ccc2[nH]c3ccc(OC)cc3c2c1`
Result: 1.46

Problem: Please look up its fluorescence fold increase: COc1cccc(NC(=O)C(C)Oc2ccccc2)c1 (configuration not stated)
Result: 1.11

Problem: GET /values?readout=fluorescence fold increase&item= `Cc1cccc(Cn2c(SCCO)nc3c2c(=O)n(C)c(=O)n3C)c1`
Result: 0.95

Problem: Recorded fluorescence fold increase for `COc1ccc(CC(=O)Nc2ccc(-c3nnc(-c4ccccc4)o3)cc2)cc1` , please?
Result: 2.23

Problem: Fill in: fluorescence fold increase of `NC(=O)CSc1oc(-c2cccs2)nc1S(=O)(=O)c1ccccc1` is ___
Result: 1.22

Problem: For the compound `Cn1c(=O)oc2cc(S(=O)(=O)N3CCC(C(=O)Nc4ccc(OC(F)(F)F)cc4)CC3)ccc21` , what fluorescence fold increase is on record?
Result: 0.99

Problem: Look up fluorescence fold increase for this compound: `O=C(COC(=O)c1ccc(Oc2ccccc2)cc1)Nc1nnc(-c2ccccc2)o1`
Result: 1.19

Problem: Any idea what fluorescence fold increase was measured for `CCN(CC)S(=O)(=O)c1cccc(C(=O)Nc2cc(C)nn2-c2nc(C)cc(C)n2)c1` ?
Result: 1.03

Problem: What value of fluorescence fold increase has been recorded for this entry: `Cc1ccc(C(=O)OCC(=O)NCc2ccc3c(c2)OCO3)s1`
Result: 0.99

Problem: Returns the measured fluorescence fold increase for the input compound. Input: `CCOc1ccc2c(c1)cc(CN(C(=O)CC)C1CCCCC1)c1nnnn12`
Result: 1.21

Problem: Give the measured fluorescence fold increase of `CCOc1ccc(NC(=O)CCS(=O)(=O)c2cccc3nsnc23)cc1` .
Result: 1.08

Problem: # fluorescence fold increase lookup, item `O=C1NC2(CCCCC2)N=C1c1ccccc1`
Result: 1.08

Problem: Look up fluorescence fold increase: `CCOC(=O)c1ccc(NC(=O)CSc2ncccn2)cc1`
Result: 1.02

Problem: Look up fluorescence fold increase for this compound: CCOC(=O)CSC1=C(C#N)C(c2sccc2C)CC(=O)N1 (configuration not stated)
Result: 1.13

Problem: // query fluorescence fold increase value for entry `O.O.O.O=S(=O)([O-])OC[C@H]1O[C@@H](O[C@]2(COS(=O)(=O)[O-])O[C@H](OS(=O)(=O)[O-])[C@@H](OS(=O)(=O)[O-])[C@@H]2OS(=O)(=O)[O-])[C@H](OS(=O)(=O)[O-])[C@@H](OS(=O)(=O)[O-])[C@@H]1OS(=O)(=O)[O-].[Al]`
Result: 1.14

Problem: What value of fluorescence fold increase has been reported for the following compound? `CN1CCCc2cc(C#N)c(=O)[nH]c21`
Result: 2.4

Problem: For the compound `CCOCCN(C=O)c1cccc(OC)c1` , what fluorescence fold increase is on record?
Result: 1.15

Problem: Which fluorescence fold increase value belongs to `C=CCNC(=O)CCCOc1cccc(C)c1` ?
Result: 1.09

Problem: # get_value(readout='fluorescence fold increase', item= `O=c1c2[nH]c3ccc(Cl)cc3c2ncn1Cc1ccccn1` )
Result: 1.12

Problem: Give its fluorescence fold increase value. Item: `N#CCSc1nc2ccccc2c(=O)n1-c1ccccc1`
Result: 1.11
